# IC50 per entry
- Test system: 817829-284-R-J1-PDC complex spheroid viability;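 note: spheroids exposed to compounds for 7 days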
- METHOD_SUMMARY: Anticancer human tumor 817829-284-R-J1-PDC patient-derived colon adenocarcinoma cell line growth inhibition [POLQ]
- TEST_CONTEXT: curve of first compound; second compound 0.1 µM

Below are worked cases with known answers.
MOLECULE: COc1cc2cc(C(=O)CCC(=O)O)sc2cc1OC + Nc1ccc(C#CCN(C(=O)Cc2ncc(C(F)(F)F)cc2C(F)(F)F)c2ccc(F)cc2)nn1
IC50: > 10 µM
//
MOLECULE: COc1cc2cc(C(=O)CCC(=O)O)sc2cc1OC + COC1C(OC(N)=O)C(O)C(Oc2ccc3c(O)c(NC(=O)c4ccc(O)c(CC=C(C)C)c4)c(=O)oc3c2C)OC1(C)C
IC50: > 10 µM

Input line: Please respond with reported IC50 (system 817829-284-R-J1-PDC complex spheroid viability) for C#Cc1c(F)ccc2cc(O)cc(-c3ncc4c(N5CC6CCC(C5)N6)nc(OCC56CCCN5CC(F)C6)nc4c3F)c12 (stereo not drawn) + Cc1cccc(N(C)C(=O)C2C(O)CCN2c2nc(C)cc(C(F)(F)F)c2C#N)c1 .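 Note: spheroids exposed to compounds for 7 days.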
Output line: > 10 µM
